Value type: melting point

CN(CCSC(=O)Cc1ccccc1Nc1c(Cl)cccc1Cl)CC1(SN=O)CCCCC1
115 to 129 °C
COc1ccc(C(=O)NNc2ccc(NC(=S)Nc3ccccc3)cc2)cc1
178 °C
Cc1cc(C)cc(NCc2ccc3nc(NCC(O)CN4CCOCC4)n(Cc4nc(C)ccc4O)c3c2)c1 (centres undefined)
198 °C
Fc1ccc(C2CC(n3cncn3)c3ccccc3N2)cc1 (centres undefined)
184 to 186 °C
O=C1NCCc2ccc(OCCCCCl)cc2N1
177 to 179 °C
COc1cc(F)c(C2NCCc3ccsc32)cc1OC (centres undefined)
108 to 111 °C
COc1ccc(Cl)cc1-c1c(N)c(=O)[nH]c2cc(Cl)c(Cl)cc12
> 300 °C
O=C(O)CCCCN1CCN2c3ccccc3Cc3ccccc3C2C1 (centres undefined)
218 to 219 °C

What value of measured melting point is listed for CCOC(=O)C1=C(COCc2nnn(CC(N)=O)n2)NC(C)=C(C(=O)OC)C1c1cccc(Cl)c1Cl (centres undefined) ?
130 to 132 °C
